In this section, each of the molecules is paired with its reported GI50.
system: A549; assay: NCI tumour cell line growth inhibition, 48 h
Active and inactive are the calls of the source. Cut-off read from the data, not from the text of the source: active = GI50 up to about 1.1 µM and inactive = higher.

Answered examples (2):
{"molecule": "CC(C)(C)c1cc(-c2cc(C(C)(C)C)[nH]n2)[nH]n1", "measure-name": "GI50", "test-value": "> 100 µM (inactive)"}
{"molecule": "CC(O)CN1c2ccccc2Sc2ccccc21 (stereo not drawn)", "measure-name": "GI50", "test-value": "> 100 µM (inactive)"}

Okay, next one:
Consider the molecule shown here: Cc1ccc(C)c2c1C/C(=C\c1ccccc1C(=O)O)C2=O What is its recorded GI50?
90.8 µM (inactive)

###

tested on: SK-MEL-5; assay: NCI tumour cell line growth inhibition, 48 h
Calls of active or inactive are those of the source. Cut-off read from the data, not from the text of the source: active = GI50 up to about 1.1 µM and inactive = higher.
measure-name: GI50

Answered examples (3):
{"compound": "O=C(N=C1N(c2ccccc2)C(=O)C(=O)N1c1ccccc1)c1ccccc1", "test-value": "14.9 µM (inactive)"}
{"compound": "COc1cc2c3cc1Oc1c(O)c(OC)cc4c1[C@H](Cc1ccc(cc1)Oc1cc(ccc1O)C[C@H]3N(C)CC2)N(C)CC4", "test-value": "7.33 µM (inactive)"}
{"compound": "CCCCCCCCCN1CCC(=O)C(C(=O)OC)C1 (stereo not drawn)", "test-value": "14.2 µM (inactive)"}

Consider the compound shown here: O=C(Nc1ccc2[nH]c(C(=O)N3CC(CCl)c4c3cc([N+](=O)[O-])c3ccccc43)cc2c1)c1cc2ccccc2o1 (stereo not drawn) What is its recorded GI50?
> 100 µM (inactive)

Consider the compound shown here: CN(C)/N=N/c1[nH]cnc1C(N)=O What is its recorded GI50?
74.6 µM (inactive)

Consider the compound shown here: CC(=O)Nc1ncc2c(n1)-c1ccccc1OC2 What is its recorded GI50?
> 100 µM (inactive)

Consider the compound shown here: C=CC(COC(=O)C(C)(C)OC(C)=O)c1ccc(OC(=O)C(C)C)c(OC)c1 (stereo not drawn) What is its recorded GI50?
13.5 µM (inactive)

Consider the compound shown here: Cc1ccc(C(=O)Cc2nc3ncccc3[nH]c2=O)cc1 What is its recorded GI50?
40.8 µM (inactive)

Consider the compound shown here: C1=N\c2ccc(cc2)-c2ccc(cc2)/N=C\c2ccccc2OCc2cccc(n2)COc2ccccc2/1 What is its recorded GI50?
> 31.2 µM (inactive)

Consider the compound shown here: COc1cc(/C=N\N(C)C)cc(/C=N/N(C)C)c1O What is its recorded GI50?
26.2 µM (inactive)

Consider the compound shown here: COC(=O)C(=O)C(C(=O)C(=O)Nc1ccc(Cl)cc1Cl)c1nc2ccc(Cl)cc2nc1O (stereo not drawn) What is its recorded GI50?
> 100 µM (inactive)

Consider the compound shown here: CCN1C(=O)C/C(=C\C(C)=O)Nc2ccccc21 What is its recorded GI50?
10 µM (inactive)

Consider the compound shown here: Nc1ccc(Oc2ccc(C34CC5CC(C3)CC(c3ccc(Oc6ccc(N)cc6C(F)(F)F)cc3)(C5)C4)cc2)c(C(F)(F)F)c1 What is its recorded GI50?
22 µM (inactive)

Consider the compound shown here: COc1ccc(NC(=O)/C(Cc2cc(=O)oc3cc(O)ccc23)=N\NC(C)(C)C)c(OC)c1 What is its recorded GI50?
> 100 µM (inactive)

Consider the compound shown here: COc1ccc(C2C(Cl)C(=O)N2NC(=O)c2ccc(N)cc2)cc1OC (stereo not drawn) What is its recorded GI50?
12.2 µM (inactive)

Consider the compound shown here: COc1ccc(C2C(C#N)=C(O)NC(O)=C2C#N)cc1OC What is its recorded GI50?
> 100 µM (inactive)

Consider the compound shown here: CC1CC[C@@]2(OC1)OC1CC3C4CCC5C[C@@H](OC6OC(CO)C(OC7OC(CO)C(O)C(OC8OC(CO)C(O)C(OC9OC(CO)C(O)C(O)C9O)C8O)C7OC7OC(CO)C(O)C(O)C7O)C(O)C6O)[C@H](O)C[C@]5(C)C4CC[C@]3(C)C1[C@@H]2C (stereo partly drawn) What is its recorded GI50?
> 80.5 µM (inactive)

Consider the compound shown here: COc1cccc2c(=O)c3c(n(C)c12)OC(C(C)C)C3 (stereo not drawn) What is its recorded GI50?
56.1 µM (inactive)

###

test system: SF-295; assay: NCI tumour cell line growth inhibition, 48 h
Activity calls are given as the source filed them. Cut-off read from the data, not from the text of the source: active = GI50 up to about 1.1 µM and inactive = higher.
In this section, each of the compounds is paired with its reported GI50.

{"compound": "O=C(Nc1nc2ncn(CCNCCn3cnc4nc(NC(=O)c5ccccc5)[nH]c(=O)c43)c2c(=O)[nH]1)c1ccccc1", "test-value": "> 100 µM (inactive)"}
{"compound": "Cc1ccc(NC(Nc2ccc(C)cc2C)=C(/C=C(\\Cl)[N+](=O)[O-])[N+](=O)[O-])c(C)c1", "test-value": "16.6 µM (inactive)"}
{"compound": "CC(=O)OC1c2ccccc2CC2(OC(C)=O)c3ccccc3C12 (configuration not stated)", "test-value": "> 100 µM (inactive)"}
{"compound": "COC(=O)C(CNC(=O)/C=C/c1ccc(OC)c(OC)c1)NC(=O)/C=C/c1ccc(OC)c(OC)c1 (configuration not stated)", "test-value": "> 100 µM (inactive)"}
{"compound": "CO[C@H]1C[C@H](O[C@H]2CC[C@]3(C=O)[C@H]4CC[C@]5(C)[C@@H](C6=CC(=O)OC6)CC[C@]5(O)[C@@H]4CC[C@]3(O)C2)O[C@H](C)[C@H]1O", "test-value": "0.133 µM (active)"}
{"compound": "CCCCNC(=O)C1C(=O)N(CCCC)C(=O)/C1=N\\N (configuration not stated)", "test-value": "> 100 µM (inactive)"}
{"compound": "FC(F)(F)c1cccc(-c2nc3ccccc3c3c2[C@@]2(N4CCCC4)CCCC[C@@H]32)c1", "test-value": "26.2 µM (inactive)"}
{"compound": "Cc1cccc(/C=N/NC(=S)NC(C)(C)C)n1", "test-value": "> 100 µM (inactive)"}
{"compound": "N#Cc1c(N)oc2cc3c(C#N)c(N)oc3cc12", "test-value": "> 100 µM (inactive)"}
{"compound": "CCC(C(=O)O)c1ccc(OCc2ccccc2)cc1 (configuration not stated)", "test-value": "> 100 µM (inactive)"}

Consider the compound shown here: CN(C)c1snc2c1c(=O)n(C)c(=O)n2C What is its recorded GI50?
> 100 µM (inactive)

Consider the compound shown here: C/C(=N\NS(=O)(=O)c1ccc(C)cc1)c1ccccn1 What is its recorded GI50?
43.3 µM (inactive)

###

tested on: A549; assay: NCI tumour cell line growth inhibition, 48 h
The source made the active and inactive calls. Cut-off read from the data, not from the text of the source: active = GI50 up to about 1.1 µM and inactive = higher.
measure-name: GI50

{"molecule": "Cc1ccc(NC(=O)C(=O)CC(=O)c2c(C)[n+]([O-])c3ccccc3[n+]2[O-])cc1C", "target-entity": "A549", "measure-name": "GI50", "test-value": "> 100 µM (inactive)"}
{"molecule": "O=C(CC(C(=O)c1ccc(F)cc1)c1ccsc1)c1cccs1 (configuration not stated)", "target-entity": "A549", "measure-name": "GI50", "test-value": "74.8 µM (inactive)"}
{"molecule": "COc1cc(/C=N\\N(C)C)cc(/C=N/N(C)C)c1O", "target-entity": "A549", "measure-name": "GI50", "test-value": "> 100 µM (inactive)"}

Consider the molecule shown here: Nc1nc(Cl)c2ncn(Cc3cccc(CCl)c3)c2n1 What is its recorded GI50?
13.2 µM (inactive)

Consider the molecule shown here: CC(=O)Nc1ncc2c(n1)-c1ccccc1OC2 What is its recorded GI50?
> 100 µM (inactive)

###

test system: KM12; experiment: NCI tumour cell line growth inhibition, 48 h
Activity calls are given as the source filed them. Rule as the data show it: active = GI50 up to about 1.1 µM and inactive = higher.
Hi there, use one of these labels in your reply, thanks! active, inactive

These solved cases illustrate the format of a correct answer.
{"compound": "COc1c2c3c4c(c(OC)c(=O)c5c(O)cc(OC)c(c6c(OC)cc(O)c(c1=O)c63)c54)C(C(C)O)C2C(C)=O (stereo not drawn)", "discrete-label": "active"}
{"compound": "CN(C)CCNCc1c2ccccc2c(CNCCN(C)C)c2ccccc12", "discrete-label": "inactive"}

# input for lookup
State the result this test recorded for N#Cc1c(-c2ccco2)c2c(n(C3OC(CO)C(O)C(O)C3O)c1=S)CCCC2 (stereo not drawn) .
inactive

###

system: IGROV-1; assay: NCI tumour cell line growth inhibition, 48 h
Activity calls are given as the source filed them. Rule as the data show it: active = GI50 up to about 1.1 µM and inactive = higher.
Hi there, use one of these labels in your reply, thanks! 1 (yes) = active, 0 (no) = inactive

{"compound": "N#C[BH2-][n+]1ccc(C(=O)NNCc2ccccc2)cc1", "discrete-label": "0 (no)"}

State the result this test recorded for CC(=O)c1[nH]c(NCc2ccccc2)c(C(=S)Nc2ccccc2)c1N .
1 (yes)

State the result this test recorded for O=C1CCc2cc3c(cc21)CC1(Cc2ccccc2C1)C3 .
0 (no)
